Data origin: patent US20210122804A1

Biological target: T1, human CD38 (human, UniProt P28907 43-300, limits assumed)
T1 construct: construct used is not described; also called hCD38
T1 sequence (looked up): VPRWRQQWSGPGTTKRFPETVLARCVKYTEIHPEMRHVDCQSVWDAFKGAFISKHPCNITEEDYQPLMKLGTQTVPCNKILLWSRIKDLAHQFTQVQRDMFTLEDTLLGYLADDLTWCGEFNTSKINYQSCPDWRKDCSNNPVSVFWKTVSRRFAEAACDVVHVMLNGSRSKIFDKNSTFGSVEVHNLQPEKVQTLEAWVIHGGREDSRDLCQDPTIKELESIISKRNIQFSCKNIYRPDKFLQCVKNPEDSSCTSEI
Test: fluorescence polarisation competition; tracer m10
*1 amine or outer side, *2 acyl side, *3 side chain or, on linkers, in order; H or OH if unused. Bridges are numbered along the chain shown (N, C = ends). Where no end group is shown, it is not given here. TBMB = c1c(C[*:1])cc(C[*:3])cc1C[*:2]
Quantity: pKi
Friendly reminder that pKi comes from taking -log10 of the concentration in mol/L.

According to the records, this binder ACFTLDGECFLLGENCA (linker 2-9-16 via TBMB, bicyclic) [66-08-52-N001] displays pKi of 6.25
